- TEST_DETAILS: protein stability index of a GFP-peptide fusion (GPS, HEK-293T) (PSI 1-6); higher = more stable;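 further: 24-mer peptide tiles fused after GFP, lentivirally expressed, FACS-sorted into six equal bins by GFP/DsRed ratio, decoded by Illumina sequencing, PSI is the read-weighted mean bin number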
- STATED_CONDITIONS: treatment: MLN4924 1 uM, 8 h; c terminus: a fixed tail appended
protein stability index listing for selected sequences.
Reply briefly: the number, and no unit.

// worked examples, protein stability index included
• MQVIAIVLYLMMPIVNISEVLGPL [PHTF1] = 3.34
• GSIMTVWLSTAPTEPLTHWYQVRC [CARM1] = 2.84

Next:
Could you please provide reported protein stability index for RDIRCSEDEKLCDPNTRPVGEKNC [ADAMTSL2] ? Thanks! 5.35

----------
- TEST_DETAILS: protein stability index of a GFP-peptide fusion (GPS, HEK-293T) (PSI 1-6); higher = more stable
- STATED_CONDITIONS: treatment: MLN4924 1 uM, 8 h; c terminus: a fixed tail appended
READOUT_KIND: protein stability index
Reply briefly: the number, and no unit.

// worked examples, protein stability index included
• RHCPYLDTINRSVLDFDFEKLCSI [USP39] = 2.56
• VHNIVIFMRTSVKISYIGLMTQSS [TMEM106C] = 3.03
• PAPTATVPAPQPPVTKPLFPSAGQ [ZNF207] = 4.8
• EHGYENMNHFTVNLNREEKIIREI [TRIM55] = 3.85
• HYWELDVDNSCDWALGVCNNSWIR [TRIM43] = 2.2

Could you please provide reported protein stability index for IPQGICPVGRSWHSLTPVSSDHLF [KLHDC2] ? Thanks! 2.52

Could you please provide reported protein stability index for SSTQLCVLNDRFQRQKYLSLQQMQ [NANOGP8] ? Thanks! 2.83

Could you please provide reported protein stability index for MSNQQEKYEAQNIVNSTEESDDAF [IQUB] ? Thanks! 5.47

----------
protein stability index listing for selected sequences.
- TEST_DETAILS: protein stability index of a GFP-peptide fusion (GPS, HEK-293T) (PSI 1-6); higher = more stable
- STATED_CONDITIONS: treatment: DMSO; c terminus: a fixed tail appended
Reply briefly: the number, and no unit.

// worked examples, protein stability index included
- PIEVVTEGLLNTYQELLGLSFEQM [NLN]: 2.13
- ARGPGPEGGGGGSYFSGQGSDTGA [JUNB]: 5.11
- VLDELTLARADLEMQIENLKEELA [KRT17]: 3.04
- SPFAQELLDDGQQASPYHPGSCGA [ELF3]: 4.83
- RNQTQVLRQQQDEAYLASLRADQE [FAF2]: 5.18
- ELEDKDGLQSAQPTEGQGSLLTNW [MYBL2]: 5.03

Could you please provide reported protein stability index for LHYAAASDMDRNKTILGNAHDNSE [ANKRD44] ? Thanks! 4.76

----------
- TEST_DETAILS: protein stability index of a GFP-peptide fusion (GPS, HEK-293T) (PSI 1-6); higher = more stable
- STATED_CONDITIONS: treatment: MLN4924 1 uM, 8 h; c terminus: a fixed tail appended
Is protein stability index at least 4? Then T. If not, F.

• VGWWALLALVTLLSFATRFHRLDE [POMT2] = F

# check: protein stability index of ETYKMEFMYSGVENKQVVIIHHMR [INTS4] is greater than or equal to 4 F

# check: protein stability index of DLFVENMPGFPDNIRPSSSGGYWV [APMAP] is greater than or equal to 4 F

# check: protein stability index of PGTLLKTSPSPERSLLLKYARTPT [TRIM14] is greater than or equal to 4 F

# check: protein stability index of SLQTGNHSNGPTDLSMKGGASTTS [NOL4L] is greater than or equal to 4 T

# check: protein stability index of VRLQERTSGGLLSEAPNEKLFFVD [NOP53] is greater than or equal to 4 F

# check: protein stability index of YQILTLEKDQEQVVMNLDSRLLIF [GMCL1] is greater than or equal to 4 F

# check: protein stability index of PDDKLTLFCEVSVVQDSVNISGHT [SPOPL] is greater than or equal to 4 F

----------
- TEST_DETAILS: protein stability index of a GFP-peptide fusion (GPS, HEK-293T) (PSI 1-6); higher = more stable
- STATED_CONDITIONS: treatment: DMSO; c terminus: a fixed tail appended
Is protein stability index at least 3? Then true (1). If not, false (0).

Field: example entries. Status: answers known.
- GSEENGRYFSLSLMSGALAVNQKI [PCDHGC5]: false (0)
- LQRLGELQSELAGVADFSATYLRC [INTS4]: false (0)
- RGGSLLAGGGGFGGGSLSGGGGSR [KRT15]: true (1)
- DGPGGNLAHAFQPGPGIGGDAHFD [MMP1]: true (1)
- VLGIQVKCFHEIITIGYRVYHSYD [CDS1]: true (1)
- NDIMAYMFGFFFGRTPLIKLSPKK [CDS2]: false (0)

# check: protein stability index of FMHSRNLYILGNFMQLKCFSSQKL [PNLIPRP1] is greater than or equal to 3 true (1)

----------
- TEST_DETAILS: protein stability index of a GFP-peptide fusion (GPS, HEK-293T) (PSI 1-6); higher = more stable
- STATED_CONDITIONS: treatment: MLN4924 1 uM, 8 h; c terminus: a fixed tail appended
protein stability index listing for selected sequences.
Reply briefly: the number, and no unit.

• GTAFDAETDSEMNSQESRSDLEDM [SMG5] = 5.5
• FMHSRNLYILGNFMQLKCFSSQKL [PNLIPRP1] = 2.53
• KYSLLKLTALLEKYTPSNKHGFSW [DLC1] = 2.6
• SQYQCENGVSGPSQDLLPPPNPYP [TBX5] = 4.64

Next:
Could you please provide reported protein stability index for PRRESLLRGLCRPLRPLLGFRESD [C6orf223] ? Thanks! 2.13

----------
- TEST_DETAILS: protein stability index of a GFP-peptide fusion (GPS, HEK-293T) (PSI 1-6); higher = more stable
- STATED_CONDITIONS: treatment: MLN4924 1 uM, 8 h; c terminus: a fixed tail appended
protein stability index listing for selected sequences.
Reply briefly: the number, and no unit.

// worked examples, protein stability index included
- PVHLVDKLPLPIALRSHLKSFSMA [RAB40B]: 2.27
- LVKKLQDSVLERWVNDPQRMDKRT [GOLPH3L]: 2.93
- HNGKIYISGGVHNGEYVPWLYCYD [KLHL14]: 2.32
- YHRETEGEEQAQLLHVSSPNLASD [KCNA1]: 5.21
- KQIIRKHAQTFVALCATDVKFISN [CCND1]: 2.39

Could you please provide reported protein stability index for PAEDPDDYDDGFSMKHTATARFQR [SMARCE1] ? Thanks! 4.89

Could you please provide reported protein stability index for PLPQIPNLPFWVKEKANSLKNEIQ [SPATS1] ? Thanks! 3.4

Could you please provide reported protein stability index for AFLEPDETFIVPDSFLVALDMDDG [SPSB1] ? Thanks! 3.65

Could you please provide reported protein stability index for DDSDTQQVVVLVRDNGDPSLSSTA [PCDHGC5] ? Thanks! 4.83

Could you please provide reported protein stability index for LPMATVDIKNPEITTNRFYGPQVN [WASL] ? Thanks! 3.54

Could you please provide reported protein stability index for GLQLPSTLPVSGNLLDVYSSQGVA [TFE3] ? Thanks! 3.4

Could you please provide reported protein stability index for GRDWRHLPTITSELSGAPRCHTVP [PXN] ? Thanks! 3.51

Could you please provide reported protein stability index for MGNSMKSTPAPAERPLPNPEGLDS [SLA] ? Thanks! 5.13

Could you please provide reported protein stability index for SVVNVGCGPAEERVLLTGLHAVAD [YPEL3] ? Thanks! 3.29

Could you please provide reported protein stability index for CYVGATVLRGRLYAIAGYDGNSLL [KLHL12] ? Thanks! 2.57

Could you please provide reported protein stability index for ELERIGPQHQAGSDSLLTGMAFFK [CNOT7] ? Thanks! 3.62

----------
- TEST_DETAILS: protein stability index of a GFP-peptide fusion (GPS, HEK-293T) (PSI 1-6); higher = more stable
- STATED_CONDITIONS: treatment: DMSO; c terminus: a fixed tail appended
READOUT_KIND: protein stability index
Reply briefly: the number, and no unit.

// worked examples, protein stability index included
- ICDPGLTSFEPEALGNLVEGMDFH [CAMK2B]: 3.92
- YRMRNVHPKPKLVRVLESLLVSLV [CLCN6]: 2.44

Could you please provide reported protein stability index for GEELADVGGVLRGLNHSLSYDVAL [SCARA5] ? Thanks! 3.4

Could you please provide reported protein stability index for HGTKNVTNSSSLRLPRQNSDGGQK [WSB1] ? Thanks! 4.96

Could you please provide reported protein stability index for EEGPTVVLNPHPSLGYKEIRKGES [CHGA] ? Thanks! 4.96
